tested on: K4 kissing-loop RNA reporter; test: apparent KD of K4 kissing-loop reporter; higher = weaker reporter binding; details: Eterna round: R107; input ligand: arginine 13.2 mM;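 note: bound reporter read as fluorescence of individual clusters on recovered sequencing chips by microscopy, with normalized cluster intensities fitted with a binding model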
PROPERTY NAME: apparent KD of K4 kissing-loop reporter (nM)
One number for each entry, in nM.

Solved cases below.
SEQ STRING: UGUAAGCGCGUAGAUACCAGCAAACGAGUGAUGUUCAAAAGAUUAAGGAAAAGAAAGUAAUGCCCUUGGCAGCUAAUCAUAAGCG [whbob_Ex_Theo_B_sa91]
UNITS OF MEASURE: nM
apparent KD of K4 kissing-loop reporter: 316

SEQ STRING: GAGGCCAGACGGAGUGAUGUUUCGUAUGAUACCAGCAGCGAAAGCUGCCCUUGGCAGCAUGCCACGGCCUCGGCGGGAAACCGCC
UNITS OF MEASURE: nM
apparent KD of K4 kissing-loop reporter: 319

SEQ STRING: CCAUCCGAGUCGGCCGCCACUUUGAGUGAUGUUUGGAGUCUGAGUCAACAUAAAUACUUAGUUUAAAGGACCGGGACUUCGGAUG [theeternabot_exclusion_KL_Trp_B_7]
UNITS OF MEASURE: nM
apparent KD of K4 kissing-loop reporter: 722

List the reported apparent KD of K4 kissing-loop reporter of each sequence below.
1. CCAUUCUUUUACGAUACCAGUCUAAUAUAUUGAAUCAAAACCCUCGCCGAGUGAUGUUCGGACCCUUGGCAGCGUCUGCGAGAGG [xwxxtkmullin]
2. UUCCACCGAGAAGGAUAUUAUGCUGGACUUGUUUAAGUGUUAAAUAGUGAUGUUAUUUGAUCGGAAUAAGAAGGUCUCAAGUUGA [theeternabot_sameState_KL_FMN_B_44]
3. UGAUUGCCAGUGAUGUUGGCAGUUUCUGAAGGAGCGCGUGAAAACGCAGGUAGGUCGCAGAUUAGUGCCAAUUGAUCGAAAGAUC [KL-XArg-A4]
4. UUGUUUUACUGAAGGAGCGGCAAUUGAUACGUAGAUAUAGUGAUGUUAUAUAAGAUAGAGAGCCAGGUAGGUCGCAGAUUUUUUU [ExArgB.V]
5. UGAUACCAGACGGCCGCCACUCCUGCAAGUCAAAGACUUGCUAAAAGGAUCGUCCAGUGAUGUUGGAGGACCGGGUCUGGUAUCU [TrypBX 19 #SwitchBubble #Palindromic #StaticStem]
6. AGGUGCUACGGAAGGAGCGCACCAGUGAUGUUGGUGUGUGACCGUGACAUGGCAGUCAAGGUGCAGGUAGGUCGCCGUGGCCAUA [Rigela]
7. CCAGGAUGAUGAGGAUGAUGAAUUACUGAAGGAGCGCAUAUGGUUGCAGGUAGGUCGCGGUGAAUAAGUAUAGUGAUGUUAUGCC [SSArgA.X]
8. AAUAAGUGUCAGCGAGUGAUGUUCGACGAUACCAGCCUCGAUAGAGGCCCUUGGCAGCGUAACGCAUGCCAAACUGGCACAAUAA [#SwitchBubble 7 #K4Early]

1. 542
2. 131
3. 227
4. 157
5. 621
6. 135
7. 407
8. 497

List the reported apparent KD of K4 kissing-loop reporter of each sequence below.
1. GGUAGUGCUAGCGAUACCAGUCAUAUCGCUCUGGAGUGAUGUUCCGGAACGUGCGGAGAAGACCCUUGGCAGCGCUUGACGGUGU [Exclusion Theophylline B GF5]
2. ACGUCUUGUAAACUCGUGGUUUCGAUCGAUACCAGUAGCGAGAGUUACCCUUGGCAGCGACAUGAGUGAUGUUCAUGUACGAAGA [KL-XTheoA3]

234
87.9
